# protocolNotes: Ex vivo biodistribution in PC-3 tumor-bearing mice
# runParameters: mouse, pancreas, Uptake in pancreas, 24 h post-injection
valueType: tissue uptake at 24 h (%ID/g)

molecule="CC(C)C[C@H](NC(=O)[C@H](Cc1cnc[nH]1)N(C)C(=O)CNC(=O)[C@@H](NC(=O)[C@H](C)NC(=O)[C@H](Cc1c[nH]c2ccccc12)NC(=O)[C@H](CCC(N)=O)NC(=O)[C@@H](Cc1ccccc1)NC(=O)CN1CCC(NC(=O)CN2CCN(CC(=O)O)CCN(CC(=O)O)CCN(CC(=O)O)CC2)CC1)C(C)(C)C)C(=O)N1CSC[C@H]1C(N)=O [[^177Lu]Lu-LW01110, metal not drawn]" assayresult=3.1

====

# protocolNotes: Ex vivo biodistribution in PC-3 tumor-bearing mice
# runParameters: mouse, PC-3 tumor, Uptake in PC-3 tumor, 120 h post-injection
Numbered stars: 1 amine (or outer) side, 2 acyl side, 3 side chain; on linkers, the order of the positions; unused ones are H or OH. Square brackets hold non-standard residues; d marks the D form. Peptide text beside a SMILES is read from it. * marks the point of attachment. DOTA = O=C(O)CN1CCN(CC(=O)O)CCN(CC(=O)*)CCN(CC(=O)O)CC1; NMeH = CN[C@@H](Cc1c[nH]cn1)C(=O)O; X1 = O=C(CN1CCC(N[*:1])CC1)[*:2]; Tle = CC(C)(C)[C@H](N)C(=O)O; Thz = O=C(O)[C@@H]1CSCN1
Below, each of the compounds is paired with its reported tissue uptake at 120 h value.
valueType: tissue uptake at 120 h (%ID/g)

compound="CC(C)C[C@@H](CN1CSC[C@H]1C(N)=O)NC(=O)[C@H](Cc1cnc[nH]1)NC(=O)CN(C)C(=O)[C@@H](NC(=O)[C@H](C)NC(=O)[C@H](Cc1c[nH]c2ccccc12)NC(=O)[C@H](CCC(N)=O)NC(=O)[C@@H](Cc1ccccc1)NC(=O)CN1CCC(NC(=O)CN2CCN(CC(=O)O)CCN(CC(=O)O)CCN(CC(=O)O)CC2)CC1)C(C)C [[^177Lu]Lu-TacsBOMB5, metal not drawn]" uom=%ID/g modifiersign=< assayresult=1
compound="CC(C)C[C@H](NC(=O)[C@H](Cc1cnc[nH]1)N(C)C(=O)CNC(=O)[C@@H](NC(=O)[C@H](C)NC(=O)[C@H](Cc1c[nH]c2ccccc12)NC(=O)[C@H](CCC(N)=O)NC(=O)[C@@H](Cc1ccccc1)NC(=O)CN1CCC(NC(=O)CN2CCN(CC(=O)O)CCN(CC(=O)O)CCN(CC(=O)O)CC2)CC1)C(C)(C)C)C(=O)N1CSC[C@H]1C(N)=O [[^177Lu]Lu-LW01110, metal not drawn]" uom=%ID/g modifiersign== assayresult=2.23
compound="CC(C)C[C@H](NC(=O)[C@H](Cc1cnc[nH]1)N(C)C(=O)CNC(=O)[C@@H](NC(=O)[C@H](C)NC(=O)[C@H](Cc1c[nH]c2ccccc12)NC(=O)[C@H](Cc1c[nH]cn1)NC(=O)[C@@H](Cc1ccccc1)NC(=O)CN1CCC(NC(=O)CN2CCN(CC(=O)O)CCN(CC(=O)O)CCN(CC(=O)O)CC2)CC1)C(C)(C)C)C(=O)N1CSC[C@H]1C(N)=O [[^177Lu]Lu-LW01142, metal not drawn] ({DOTA}-[X1][dF]HWA[Tle]G[NMeH]L[Thz]-NH2)" uom=%ID/g modifiersign== assayresult=2.25
